# Read-out: TIMP1, TIMP1 (gene 7076)
# methodDescription: LTEA_HepaRG_TIMP1: Life Technologies and Expression Analysis (LTEA) Assay for TIMP1 using HepaRG (AID 2283534)
# particulars: mRNA level, 48 h; actives raise or lower the signal
Active and inactive are the calls of the source. How the source made its calls: active means hit-call score of the fitted dose curve at least 0.9, where 1 is the maximum; inactive means score below 0.9.
Possible outcomes: class 1 = active, class 0 = inactive

>>> group("c1ccc2c(c1)-c1cccc3c1c-2cc1ccccc13")
"class 1"
>>> group("CCCCN1C(=O)[C@@H]([C@H](O)C2CCCCC2)NC(=O)C12CCN(Cc1ccc(Oc3ccc(C(=O)O)cc3)cc1)CC2")
"class 0"
>>> group("CC[C@H](C)C(=O)O[C@H]1C[C@H](O)C=C2C=C[C@H](C)[C@H](CC[C@@H](O)C[C@@H](O)CC(=O)O)[C@H]21")
"class 0"
>>> group("O=C(O)c1ccc2c(c1)nc(C(=O)NC1CCN(C3CC3)CC1)n2Cc1cc(-c2ccc(Cl)s2)on1")
"class 0"
>>> group("Nc1ccn([C@@H]2O[C@H](CO)[C@@H](O)[C@@H]2O)c(=O)n1")
"class 0"
>>> group("CCCCCCCC/C=C\\CCCCCCCC(=O)OC[C@@H](O)[C@H]1OC[C@H](O)[C@H]1O")
"class 0"
>>> group("CCN(CC)C(=S)SSC(=S)N(CC)CC")
"class 0"
>>> group("CCCCCCCCCCCCCCCCOS(=O)(=O)O")
"class 1"
>>> group("COCc1nnc(-c2ccc[n+]([O-])c2)n1-c1c(Cl)c(Cl)cc2[nH]c(=O)c(=O)[nH]c12")
"class 0"
>>> group("O=C(O)[C@H](O)[C@@H](O)C(=O)O")
"class 0"
>>> group("CCCCCCCC1CCC(=O)O1 (stereo not given)")
"class 0"
>>> group("c1ccc2cc3ccccc3cc2c1")
"class 0"
>>> group("CC(C)C(=O)Nc1ccc([N+](=O)[O-])c(C(F)(F)F)c1")
"class 1"
>>> group("COS(C)(=O)=O")
"class 0"
>>> group("CCCCC(CC)C(=O)OCCOCCOCCOC(=O)C(CC)CCCC (stereo not given)")
"class 0"
>>> group("OCc1ccccc1")
"class 0"
>>> group("CCCCCCOC(=O)CC(CC(=O)OCCCCCC)(OC(=O)CCC)C(=O)OCCCCCC")
"class 0"
>>> group("O=S(=O)(O)c1ccc(N=Nc2c(O)ccc3cc(S(=O)(=O)O)ccc23)cc1")
"class 0"
>>> group("OC(CCl)CCl")
"class 0"
>>> group("OC[C@H]1O[C@@H]2O[C@H]3[C@H](O)[C@@H](O)[C@@H](O[C@H]4[C@H](O)[C@@H](O)[C@@H](O[C@H]5[C@H](O)[C@@H](O)[C@@H](O[C@H]6[C@H](O)[C@@H](O)[C@@H](O[C@H]7[C@H](O)[C@@H](O)[C@@H](O[C@H]1[C@H](O)[C@H]2O)O[C@@H]7CO)O[C@@H]6CO)O[C@@H]5CO)O[C@@H]4CO)O[C@@H]3CO")
"class 0"

====

# targetOrTestSystem: CCAAT/enhancer-binding protein beta (Homo sapiens) (UniProt P17676)
# Sequence (P17676 whole entry, looked up): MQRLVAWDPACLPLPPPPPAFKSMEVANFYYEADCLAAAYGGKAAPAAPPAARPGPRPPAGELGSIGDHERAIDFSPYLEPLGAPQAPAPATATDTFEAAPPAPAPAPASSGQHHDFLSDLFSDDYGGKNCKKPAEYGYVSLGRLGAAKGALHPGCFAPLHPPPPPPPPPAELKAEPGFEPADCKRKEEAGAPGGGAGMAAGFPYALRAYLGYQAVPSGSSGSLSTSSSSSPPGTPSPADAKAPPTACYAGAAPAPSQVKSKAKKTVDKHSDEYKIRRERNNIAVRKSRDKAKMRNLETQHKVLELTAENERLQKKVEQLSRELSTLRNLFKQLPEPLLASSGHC
# methodDescription: ATG_C_EBP_CIS: Attagene CIS-FACTORIAL HepG2 Assay for human CCAAT/Enhancer Binding Protein (C/EBP) beta (AID 2282927)
# particulars: HepG2 Attagene cis-factorial transcription factor reporter; actives raise or lower the signal
Active and inactive are the calls of the source. Rule for the calls: active = hit-call score of the fitted dose curve at least 0.9, where 1 is the maximum; inactive = score below 0.9.
Labels: active, inactive

>>> group("CCCc1ccccc1")
"inactive"
>>> group("CCN(CC)C(=S)SSC(=S)N(CC)CC")
"inactive"
>>> group("Cn1cc[nH]c1=S")
"inactive"
>>> group("CCc1ccc(O)c(C(C)(C)C)c1")
"inactive"
>>> group("CCCOc1ccc(S(=O)(=O)N2CCN(CC)CC2)cc1-c1nc2c(CC)n(Cc3ccccn3)nc2c(=O)[nH]1")
"inactive"
>>> group("OCCC(F)(F)C(F)(F)C(F)(F)C(F)(F)F")
"inactive"
>>> group("CCCCCCCCCCCCCCO")
"active"
>>> group("OC(CCl)CCl")
"inactive"
>>> group("COc1cc2c(c(OC)c1OC)-c1ccc(OC)c(=O)cc1[C@@H](NC(C)=O)CC2")
"inactive"
>>> group("O=S(=O)(O)c1ccc(N=Nc2c(O)ccc3cc(S(=O)(=O)O)ccc23)cc1")
"inactive"
>>> group("COS(C)(=O)=O")
"inactive"
>>> group("CC(C)C(=O)Nc1ccc([N+](=O)[O-])c(C(F)(F)F)c1")
"inactive"
>>> group("OCc1c[nH]c2ccccc12")
"inactive"
>>> group("NC(=O)N1c2ccccc2C=Cc2ccccc21")
"inactive"
>>> group("O=C(N[C@H](CO)[C@H](O)c1ccc([N+](=O)[O-])cc1)C(Cl)Cl")
"inactive"
>>> group("CC(C)CCCCCCOC(=O)C1CCCCC1C(=O)OCCCCCCC(C)C (centres undefined)")
"inactive"
>>> group("NC(=O)NN=Cc1ccc([N+](=O)[O-])o1")
"inactive"
>>> group("O=C(O)[C@H](O)[C@@H](O)C(=O)O")
"inactive"
>>> group("c1ccc2c(c1)-c1cccc3c1c-2cc1ccccc13")
"inactive"
>>> group("OC[C@H]1O[C@@](CO)(O[C@H]2O[C@H](CO)[C@@H](O)[C@H](O)[C@H]2O)[C@@H](O)[C@@H]1O")
"inactive"
>>> group("O=C(O)c1cccc(C(=O)O)c1")
"inactive"
>>> group("OC(Cn1cncn1)(Cn1cncn1)c1ccc(F)cc1F")
"inactive"
>>> group("FC(F)C(F)(F)COCC1CO1 (centres undefined)")
"inactive"
>>> group("CC(=O)c1ccccc1")
"inactive"
>>> group("CCn1nc(C)c2c1C(=O)NCC(c1ccc(O)cc1)=N2")
"inactive"
>>> group("CCCCOC(=O)c1ccccc1")
"inactive"
>>> group("CC1(C)C(=O)N(Cl)C(=O)N1Cl")
"inactive"
>>> group("FC(F)(F)COC(OCC(F)(F)F)OCC(F)(F)F")
"inactive"
>>> group("O=C(O)c1ccc2c(c1)nc(C(=O)NC1CCN(C3CC3)CC1)n2Cc1cc(-c2ccc(Cl)s2)on1")
"inactive"
>>> group("O=C(O)CO")
"inactive"
>>> group("C[C@]12C=CC(=O)C=C1CC[C@H]1[C@@H]3C[C@@H](O)[C@](O)(C(=O)CO)[C@@]3(C)C[C@H](O)[C@@]12F")
"inactive"
>>> group("O=c1[nH]cnc2c1ncn2[C@H]1CC[C@@H](CO)O1")
"inactive"
>>> group("CCCCC(CC)C(=O)OCCOCCOCCOC(=O)C(CC)CCCC (centres undefined)")
"inactive"
>>> group("c1ccc2cc3ccccc3cc2c1")
"inactive"
>>> group("COc1cc(C(C)C)c2c(c1)S(=O)(=O)N(COc1cc(=O)n3cccc(OCCN4CCCCC4)c3n1)C2=O")
"active"
>>> group("c1ccc(C(O[C@@H]2CCCN(CCc3ccc4c(c3)OCO4)C2)c2ccccc2)cc1")
"inactive"
>>> group("C=CN1CCCC1=O")
"inactive"
>>> group("c1ccc2ncccc2c1")
"inactive"
>>> group("CCc1cccc(CC)c1N")
"inactive"
